experimental.target: Delta-type opioid receptor (Homo sapiens, UniProt P41143)
Sequence (P41143 whole entry): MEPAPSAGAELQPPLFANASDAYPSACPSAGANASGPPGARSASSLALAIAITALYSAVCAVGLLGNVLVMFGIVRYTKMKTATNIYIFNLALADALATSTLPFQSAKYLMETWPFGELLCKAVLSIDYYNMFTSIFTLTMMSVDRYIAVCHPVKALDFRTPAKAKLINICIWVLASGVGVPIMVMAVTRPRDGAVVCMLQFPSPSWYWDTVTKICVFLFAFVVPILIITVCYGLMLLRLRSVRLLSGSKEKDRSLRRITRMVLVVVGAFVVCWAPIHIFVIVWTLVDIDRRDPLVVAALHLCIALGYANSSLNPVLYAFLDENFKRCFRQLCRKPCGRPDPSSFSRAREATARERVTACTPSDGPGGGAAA
test.name: DOR agonists, SAR follow-up, image-based (AID 2370)
reported.property: pEC50
Hey, just a heads up that pEC50 is the negative log base 10 of the concentration in molar.

Consider the molecule CCC(N=Nc1ccnc2cc(Cl)ccc12)c1ccc(O)cc1 (configuration not stated) and give its measured pEC50.
4.51
